tested.on: T1, human ERBB3 His tagged, monomeric (human, UniProt P21860 20-643, biotinylated in the Alphascreen assays (sites not given))
T1 construct: Used unbiotinylated as Biacore analyte and biotinylated in Alphascreen; treated as one molecule; also called human ERBB3-His (Acrobiosystems); biotinylated monomeric human ERBB3
protocol.description: SPR (Biacore), captured IgG, monomeric ERBB3-His analyte
Procedure: Affinity (KD) of purified IgGs was determined via SPR with antigen in-solution on a Biacore® 3000 (GE). […] The obtained sensorgrams were analysed using the Biacore® 3000 evaluation (BlAevaluation) software. The KD was calculated by simultaneous fitting of the association and dissociation phases to a 1:1 Langmuir binding model. […]
measured.metric: koff (s⁻¹)
Numeric answer only, unit s⁻¹ assumed.

# annotated cases, reported koff shown
| binder | koff (s⁻¹) |
| --- | --- |
| 15D10 IgG1null (antibody, V domains shown, Human IgG1null (L234A, L235A, G237A) and human Ckappa) VH: QVQLVESGGGLVKPGGSLRLSCAASGFTFSDYGMSWIRQAPGKGLEWVSTISDGGSYTYYADNVKGRFTISRDNAKNSLYLQMNSLRAEDTAVYYCAREWGDYDGFDFWGQGTLVTVSS VL: DIQMTQSPSSLSASVGDRVTITCRASQSISSYLSWYQQKPGKAPKLLIYAASTLQSGVPSRFSGSGSGTDFTLTISSLQPEDFATYYCLQYDSTPLTFGGGTKVEIK | 0.0019 |
| 09H02 IgG1null (antibody, V domains shown, Human IgG1null and human Ckappa; also called 09HO2) VH: QVQLVESGGGLVKPGGSLRLSCAASGFTFSDYSMSWIRQAPGKGLEWVSTISDGGSYTYYPDSVKGRFTISRDNAKNSLYLQMNSLRAEDTAVYYCARELGDYDGFDYWGQGTLVTVSS VL: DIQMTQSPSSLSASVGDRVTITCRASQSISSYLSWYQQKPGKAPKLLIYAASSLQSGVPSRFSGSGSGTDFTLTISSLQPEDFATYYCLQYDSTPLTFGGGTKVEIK | 0.0013 |

Now examine the next entry.
Recorded koff for MH3 IgG1null (antibody, V domains shown, Designer (Maximally Humanized) clone; Human IgG1null and human Ckappa) VH: QVQLVESGGGLVKPGGSLRLSCAASGFTFSDYSMSWIRQAPGKGLEWVSTISDSGSTIYYADSVKGRFTISRDNAKNSLYLQMNSLRAEDTAVYYCAREWGDYDGFDFWGQGTLVTVSS VL: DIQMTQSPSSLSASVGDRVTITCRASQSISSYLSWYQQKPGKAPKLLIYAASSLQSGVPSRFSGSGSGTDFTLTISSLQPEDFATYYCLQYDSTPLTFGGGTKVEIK , please? 0.0065

Origin of measurements: patent US20200339702A1
